Tested on: TK-10 renal
Experiment: NCI tumour cell line growth inhibition, 48 h
assay.readout: GI50

COc1nc2c(cc1S(=O)(=O)c1ccccc1)CCc1c-2cnn1Cc1ccccc1 | > 100 µM

Prompt: Name the recorded GI50 for COc1ccccc1-c1ccc2nc(NC(=O)Nc3cc(C(F)(F)F)cc(C(F)(F)F)c3)sc2c1 .
Completion: 4.03 µM

Prompt: Name the recorded GI50 for COc1ccc2c(c1)C(=O)c1c-2c(OCCN(C)C)nc2cc(OC)ccc12 .
Completion: 3.14 µM

Prompt: Name the recorded GI50 for COc1ccc(S(=O)(=O)NC2=NCCN2C(=S)SN2CCn3c2nsc3=S)cc1OC .
Completion: 22.2 µM

Prompt: Name the recorded GI50 for O=C1OCC2=C1C(c1cccc(C(F)(F)F)c1)c1cc3c(cc1N2CCO)OCO3 (stereo not given) .
Completion: 10.1 µM
